Measured MIC by item
- Tested on: Staphylococcus aureus
- experimental.protocol: Antibacterial activity against Staphylococcus aureus ATCC 6538 measured after 24 hrs by susceptibility assay
- Type: functional
Quick note: give the figure in µM, leave out the unit.

Use these answered entries as a reference point.
compound: COc1ccc(S(=O)(=O)NC(=O)[C@]23CCC(C)(C)C[C@H]2C2=CC[C@@H]4[C@@]5(C)Cc6c([nH]c7cccc(C(=O)O)c67)C(C)(C)[C@@H]5CC[C@@]4(C)[C@]2(C)CC3)cc1
assay.system: Staphylococcus aureus
recorded.measurement: 2

compound: CCn1cc(C(=O)O)c(=O)c2cc(F)c(N3CCNCC3)cc21 [NORFLOXACIN]
assay.system: Staphylococcus aureus
recorded.measurement: 2

Task: Looking for the measured MIC of COc1ccc(S(=O)(=O)NC(=O)[C@]23CCC(C)(C)C[C@H]2C2=CC[C@@H]4[C@@]5(C)Cc6c([nH]c7c(C(=O)O)cccc67)C(C)(C)[C@@H]5CC[C@@]4(C)[C@]2(C)CC3)cc1 , can you help?
Result: 2
